- System: Pancreatin
- Protocol Description: Protease stability in simulated intestinal fluid (Pancreatin-SIF, FaSSIF)
- Format: in vitro ADME
- Setup Conditions: 240 min, 1 μM peptide, 37° C., read-out: FaSSIF 240 (min), remaining percent of peptide
Positions of bridges follow the written chain, without caps; N, C: chain ends. Non-standard residues stand in square brackets, D forms with d. Residues, ends and D or L forms follow the SMILES beside them. *: point of attachment. Trp(7-Me) = Cc1cccc2c(C[C@H](N)C(=O)O)c[nH]c12; 2Nal = N[C@@H](Cc1ccc2ccccc2c1)C(=O)O; 3Pal = N[C@@H](Cc1cccnc1)C(=O)O; Thp = NC1(C(=O)O)CCOCC1; Me2NCH2CH2 = CN(C)CC*; Ava = NCCCCC(=O)O; Sar = CNCC(=O)O
Parameter: remaining at 4 h, 1 µM (%)
Numeric only. Scale: %

Cc1cccc2c(C[C@@H]3NC(=O)[C@H]([C@@H](C)O)NC(=O)[C@H](CC(N)=O)NC(=O)[C@@H]4CSSC[C@H](NC(=O)[C@H](CC(C)C)NC3=O)C(=O)N[C@@H](Cc3ccc(OCCN(C)C)cc3)C(=O)N[C@@H](Cc3ccc5ccccc5c3)C(=O)NC3(CCOCC3)C(=O)N[C@H](C(=O)N[C@@H](CC(N)=O)C(=O)N[C@@H](Cc3cccnc3)C(=O)N(C)CC(N)=O)CCC(=O)NCCCCC(=O)N4)c[nH]c12 [compound 24] ([Ava]CNT[Trp(7-Me)]LCY(Me2NCH2CH2)[2Nal][Thp]EN[3Pal][Sar]-NH2; disulfide 2-7; lactam N-11) : 76

Alright, here's another molecule for you.
# lookup: remaining at 4 h, 1 µM of C[C@@H](O)[C@@H]1NC(=O)[C@H](CC(N)=O)NC(=O)[C@@H]2CSSC[C@H](NC(=O)[C@H](CCC(N)=O)NC(=O)[C@H](Cc3c[nH]c4ccccc34)NC1=O)C(=O)N[C@@H](Cc1ccc(OCCN(C)C)cc1)C(=O)N[C@@H](Cc1ccc3ccccc3c1)C(=O)NC(C)(C)C(=O)N[C@H](C(=O)N[C@@H](CC(N)=O)C(=O)N[C@@H](CC(N)=O)C(N)=O)CCCCN(C)C(=O)CCC(=O)N2 [compound 25] 45
